Biological target: human S1P1 receptor (Homo sapiens, UniProt P21453)
Construct: membranes used
Sequence (P21453 whole entry): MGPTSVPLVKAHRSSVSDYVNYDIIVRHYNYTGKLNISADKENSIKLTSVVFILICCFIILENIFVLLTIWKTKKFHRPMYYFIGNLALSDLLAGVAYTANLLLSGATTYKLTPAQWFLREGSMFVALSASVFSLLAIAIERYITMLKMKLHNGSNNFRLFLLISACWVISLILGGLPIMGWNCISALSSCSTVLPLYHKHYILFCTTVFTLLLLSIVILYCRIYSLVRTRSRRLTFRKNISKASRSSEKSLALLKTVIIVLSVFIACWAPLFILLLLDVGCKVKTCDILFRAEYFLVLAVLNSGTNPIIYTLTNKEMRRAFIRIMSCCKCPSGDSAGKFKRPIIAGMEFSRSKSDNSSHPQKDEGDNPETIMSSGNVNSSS
Assay: GTP γ35S binding assay for S1P1 activity
Conditions: activity potency from GTP γ35S binding; 5 μg membrane protein; test compounds 0.08 to 5,000 nM; 30 min at 25° C.
pEC50: −log10 of the molar value.
observable: pEC50

[P] Cc1ccc(CC(CCCCOc2ccc(CNCCC(=O)O)cc2)c2cccc(Cl)c2)cc1C (centres unmarked)
[Q] Cc1ccc(CC(CCOc2ccc(CNCCCP(=O)(O)O)cc2)c2cccc(Cl)c2)cc1C (centres unmarked)
[R] Cc1ccc(CC(CCCOc2ccc(CNCCC(=O)O)cc2)c2ccsc2)cc1C (centres unmarked)
[S] Cc1ccc(CC(CCCOc2ccc(CNCCCP(=O)(O)O)cc2)c2cccc(Cl)c2)cc1C (centres unmarked)
[T] Cc1ccc(CC(CCCOc2ccc(CNCCCP(=O)(O)O)cc2)c2ccsc2)cc1C (centres unmarked)
[ask] Sort by pEC50, descending. Present the labels in the sequence the task asks for.
[reply] S, T, Q, R, P

* * *

Biological target: human S1P1 receptor (Homo sapiens)
Construct: membranes used
Assay: GTP γ35S binding assay for S1P1 activity
Conditions: activity potency from GTP γ35S binding; 5 μg membrane protein; test compounds 0.08 to 5,000 nM; 30 min at 25° C.
pEC50: −log10 of the molar value.
observable: pEC50

molecule	observable	readoutNumber
Cc1ccc(CC(CCCOc2ccc(CNCCC(=O)O)cc2)c2cccc(F)c2F)cc1C (stereo not drawn) [Compound 2]	pEC50	9.07

[I] Cc1ccc(CC(CCOc2ccc(CNCCC(=O)O)cc2)c2cccc(Cl)c2)cc1C (stereo not drawn) [Compound 6]
[II] Cc1ccc(CC(CCCOc2ccc(CNCCCP(=O)(O)O)cc2)c2cc(F)cc(F)c2)cc1C (stereo not drawn) [Compound 9]
[ask] Could you tell me which of these two has the smaller pEC50 figure? First: I Second: II Record your answer as the label of the chosen record.
[reply] I

* * *

Target: human S1P1 receptor (Homo sapiens, UniProt P21453)
Construct: membranes used
Assay: GTP γ35S binding assay for S1P1 activity
Conditions: activity potency from GTP γ35S binding; 5 μg membrane protein; test compounds 0.08 to 5,000 nM; 30 min at 25° C.
pEC50: −log10 of the molar value.
observable: pEC50

molecule	pEC50
Cc1ccc(CC(CCCCOc2ccc(CNCCCP(=O)(O)O)cc2)c2cccc(Cl)c2)cc1C (stereo not drawn) [Compound 8]	7.77

[I] Cc1ccc(CC(CCCOc2ccc(CNCCC(=O)O)cc2)c2cc(F)cc(F)c2)cc1C (stereo not drawn) [Compound 4]
[II] Cc1ccc(CC(CCCOc2ccc(CNCCC(=O)O)cc2)c2cccc(Cl)c2)cc1C (stereo not drawn) [Compound 5]
[ask] Could you tell me which of these two has the smaller pEC50 figure? First: I Second: II Record your answer as the label of the chosen record.
[reply] II
